Target under test: Mas-related G-protein coupled receptor member X1 (Homo sapiens) (UniProt Q96LB2)
Sequence (Q96LB2 whole entry, looked up): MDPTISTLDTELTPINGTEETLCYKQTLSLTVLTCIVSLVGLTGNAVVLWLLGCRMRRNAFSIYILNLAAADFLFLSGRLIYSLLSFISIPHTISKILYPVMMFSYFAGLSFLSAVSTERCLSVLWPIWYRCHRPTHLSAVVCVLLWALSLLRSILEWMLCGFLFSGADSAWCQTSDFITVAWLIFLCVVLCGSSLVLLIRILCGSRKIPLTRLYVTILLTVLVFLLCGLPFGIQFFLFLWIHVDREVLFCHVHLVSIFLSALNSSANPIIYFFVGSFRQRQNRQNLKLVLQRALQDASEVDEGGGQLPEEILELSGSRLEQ
Experiment: blockade of BAM8-22-evoked MrgX1 calcium response – HEK293 cells, Fluo-4 calcium flux, primary screen (AID 588676)
Assay setup: Fluo-4, BAM8-22 antagonism, at 10 µM
Screen size: about 310,000 compounds; about 3,900 (1.3%) were called active.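 Rule for the calls: active = calcium-response B-score plate-corrected more than 3 library SD below zero, starting fluorescence within 5 deviations, no agonist response on first addition; inactive = the rest.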 Shown is part of a subset that was picked to be rich in actives.
Hello, when you answer, please use one of the following outcomes: active, inactive

[in] Please indicate how the test categorized O=C(CN1CCCCCC1)Nc1c(Cl)cc(Cl)cc1Cl .
[out] inactive

[in] # fetch the recorded call for Cc1ccc(S(=O)(=O)NNC(=O)/C=C/c2cccc(F)c2)cc1 here
[out] inactive

[in] Outcome? O=C(c1cc(-c2ccc(Cl)s2)nc2ccccc12)N1CCOCC1
[out] inactive

[in] Would you mind telling me which call this test gave CC(C)OCCCNC(=O)c1cc(Sc2ccc(F)cc2)nc2ccccc12 ?
[out] inactive

[in] Please state the recorded outcome for this compound: CC(=O)Nc1ccc(S(=O)(=O)N2CCC(C(=O)N[C@@H](Cc3ccccc3)C(=O)O)CC2)cc1
[out] inactive

[in] Assay result, entry COc1cc(-c2c(-c3ccc4c(c3)OCO4)noc2C)ccc1F — outcome?
[out] inactive

[in] Status in this test for CC(=O)Nc1ccc(NC(=O)COc2ccc(S(=O)(=O)NC(C)c3ccccc3)cc2)cc1 (centres undefined) ?
[out] inactive

[in] Look up the recorded call for Cc1cc(=O)oc2cc(NC(=O)C3CC(=O)N(Cc4ccccc4)C3)ccc12 (centres undefined) in this test.
[out] active

[in] Please share the test call associated with Cc1cc(=O)oc2cc(NC(=O)C(C)Oc3ccccc3)ccc12 (centres undefined) .
[out] inactive

[in] Record request — test call for Cc1cc(C)cc(NC(=O)C2CCN(c3nc(C)cc(C)n3)CC2)c1
[out] inactive

[in] Identify the outcome logged in this assay for the compound shown: COc1cc(CC(=O)Nc2nc(-c3ccc(F)c(F)c3)cs2)cc(OC)c1OC
[out] inactive

[in] Outcome? CCOc1ccc(CCNC(=O)COC(=O)c2ccc(F)c(S(=O)(=O)N3CCOCC3)c2)cc1OCC
[out] active

[in] What outcome does the record of this test show for COCC(C)NC(=O)c1ccc(Cl)c(Cl)c1 (centres undefined) ?
[out] active

[in] Dear colleague, could you share the recorded outcome for Fc1ccccc1Cc1ccc(Cl)nn1 when you have a moment?
[out] inactive

###

Target under test: Mas-related G-protein coupled receptor member X1 (Homo sapiens) (UniProt Q96LB2)
Experiment: blockade of BAM8-22-evoked MrgX1 calcium response – HEK293 cells, Fluo-4 calcium flux, primary screen (AID 588676)
Assay setup: Fluo-4, BAM8-22 antagonism, at 10 µM
Screen size: about 310,000 compounds; about 3,900 (1.3%) were called active.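 The calls were made as follows: active = calcium-response B-score plate-corrected more than 3 library SD below zero, starting fluorescence within 5 deviations, no agonist response on first addition; inactive = the rest.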 What follows is part of a selection rich in actives, with near analogues and random picks from the rest.
Field 'call' accepts class 1 = active, class 0 = inactive

[in] Which outcome was entered for the molecule CC(C)(C)n1c(=O)[nH]c2c(c1=O)CCC2 in this test?
[out] class 1

[in] For this molecule, state the assay outcome: COc1ccc(Cl)cc1NC(=O)CNc1ccccc1F
[out] class 0

[in] What is the recorded call for this molecule in the test? Cc1nn(C)c(C)c1Sc1ccccc1N
[out] class 0

[in] Could you kindly confirm the outcome this assay logged for O=C(NCC1CCCO1)c1ccccc1-c1nc(-c2ccccc2Cl)no1 (centres undefined) ?
[out] class 0

[in] Outcome? O=S(=O)(NC1CCCCC1N1CCCCC1)c1ccc(Cl)cc1 (centres undefined)
[out] class 0

[in] Please let me know the test result on file for CC(C)(C)NC(=O)NC(=O)COC(=O)C1(C)CC1(Cl)Cl (centres undefined) .
[out] class 0

[in] What did this assay record as the result for Nc1cccc(S(=O)(=O)Nc2ccc(SC(F)F)cc2)c1 ?
[out] class 0

[in] Tell me the assay call for O=C(Cn1cc(C(=O)C2CC2)c2ccccc21)Nc1ccccc1Cl please.
[out] class 0

[in] Outcome logged for C=C(C)C1CC=C(C)/C(=N\NC(=O)CNc2ccccc2OC)C1 (centres undefined) in this assay:
[out] class 1

[in] Recorded call for COc1cc(/C=C2/SC(=S)N(Cc3ccccc3)C2=O)cc(OC)c1O ?
[out] class 1

[in] What did this assay record as the result for CCOC(=O)C1CCN(C(=O)COC(=O)C2CCN(S(=O)(=O)c3ccc4c(c3)OCCO4)CC2)CC1 ?
[out] class 0

[in] Test call, this molecule: Cc1ccccc1OCC(=O)Nc1nnc(S(=O)(=O)N2CCCC2)s1
[out] class 0

[in] Query: recorded result category for COc1ccc(NC(=O)c2sc3nc(C)nc(N4CCN(c5ccccn5)CC4)c3c2C)c(OC)c1 in this test
[out] class 0

[in] Hello, I am checking results. What call was entered for Cc1ccc(C(=O)NC2CCN(C(=O)Nc3ccccc3Cl)CC2)cc1 ?
[out] class 0
